molecular target: UniProtKB P00742; assay: Inhibitory activity against coagulation factor X in human plasma
Sequence (P00742 41-179 limits assumed): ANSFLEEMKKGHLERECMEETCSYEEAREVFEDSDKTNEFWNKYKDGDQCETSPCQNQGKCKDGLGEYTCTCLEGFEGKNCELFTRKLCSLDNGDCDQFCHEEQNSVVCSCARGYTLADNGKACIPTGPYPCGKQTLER
Sequence (P00742 235-488 limits assumed): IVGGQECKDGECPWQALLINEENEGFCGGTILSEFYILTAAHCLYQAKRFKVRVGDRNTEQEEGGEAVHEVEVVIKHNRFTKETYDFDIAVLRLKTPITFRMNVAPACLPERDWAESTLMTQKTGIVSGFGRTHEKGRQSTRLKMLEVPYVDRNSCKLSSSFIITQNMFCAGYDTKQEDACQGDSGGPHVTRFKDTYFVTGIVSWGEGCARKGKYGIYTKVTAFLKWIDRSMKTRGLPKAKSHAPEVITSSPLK
PARAMETER MEASURED: pIC50
A value of pIC50 is the negative decimal logarithm of a concentration given in moles per litre.

What value of measured pIC50 is listed for "CCOC(=O)C1(c2ccc3c(C)cc(Oc4ccc(C(=N)N)cc4)nc3c2)CCCC1" ?
5.82

###

target: Plasminogen (Homo sapiens, UniProt P00747); test: Inhibitory activity against plasmin in human plasma
Sequence (P00747 97-580 limits assumed): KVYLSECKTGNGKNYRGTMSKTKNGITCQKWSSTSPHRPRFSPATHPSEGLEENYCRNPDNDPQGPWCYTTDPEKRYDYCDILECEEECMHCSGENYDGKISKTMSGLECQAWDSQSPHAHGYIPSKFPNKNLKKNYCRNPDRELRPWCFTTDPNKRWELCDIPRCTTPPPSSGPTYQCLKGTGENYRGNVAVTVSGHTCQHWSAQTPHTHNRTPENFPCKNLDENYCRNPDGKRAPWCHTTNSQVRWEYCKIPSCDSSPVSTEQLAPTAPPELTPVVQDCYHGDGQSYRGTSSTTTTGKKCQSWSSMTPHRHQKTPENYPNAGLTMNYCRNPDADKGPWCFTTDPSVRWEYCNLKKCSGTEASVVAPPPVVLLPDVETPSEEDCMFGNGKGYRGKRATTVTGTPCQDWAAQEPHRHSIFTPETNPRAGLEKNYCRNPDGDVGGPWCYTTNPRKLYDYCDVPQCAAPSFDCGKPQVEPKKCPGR
Sequence (P00747 581-810 limits assumed): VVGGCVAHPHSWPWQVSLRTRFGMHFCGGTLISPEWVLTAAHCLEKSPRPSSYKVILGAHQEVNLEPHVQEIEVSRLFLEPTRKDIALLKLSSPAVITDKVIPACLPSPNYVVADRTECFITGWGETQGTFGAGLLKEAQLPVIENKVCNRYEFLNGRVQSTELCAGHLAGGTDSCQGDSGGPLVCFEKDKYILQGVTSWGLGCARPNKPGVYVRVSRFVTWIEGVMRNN
PARAMETER MEASURED: pIC50
On this scale, pIC50 is minus log10 of a concentration expressed in M (mol/L).

CCOC(=O)C1(c2ccc3c(C)cc(Oc4ccc(C(=N)N)cc4)nc3c2)CCCC1 = 5.24
C/C(=C\C(=O)O)c1ccc2c(C)cc(Oc3ccc(C(=N)N)cc3)nc2c1 = 4.60

Item under review: "Cc1ccc(-c2ccc3c(C)cc(Oc4ccc(C(=N)N)cc4)nc3c2)cc1" . Reported pIC50?
4.91

Queued: "Cc1ccccc1-c1ccc2c(C)cc(Nc3ccc(C(=N)N)cc3)nc2c1"
4.83

Consider next the compound "Cc1ccccc1-c1ccc2c(C)cc(Oc3ccc(C(=N)N)cc3)nc2c1" in the same way.
5.08

How about this compound: "CCOC(=O)C(C)(C)c1ccc2c(C)cc(Oc3ccc(C(=N)N)cc3)nc2c1"
4.70

Also check "CCOC(=O)/C=C(\C)c1ccc2c(C)cc(Oc3ccc(C(=N)N)cc3)nc2c1"
5.19

###

assay: Partition coefficient (logP); format: physicochemical; conditions: octanol/water
# logP annotations
Please give the numeric answer without any surrounding text.

Cc1ccc(C(=O)NCC(=O)O)cc1-c1ccc2c(C)cc(Oc3ccc(C(=N)N)cc3)nc2c1 = 0.5

Query compound follows.
Would you mind telling me what logP value was observed for "CCOC(=O)CNC(=O)c1ccc(C)c(-c2ccc3c(C)cc(Oc4ccc(C(=N)N)cc4)nc3c2)c1" ?
1.3

###

// each record: one item and its IC50 for Serine protease 1 (Homo sapiens, UniProt P07477)
API: value field is a number in nM; no unit string.

CCOC(=O)/C=C(\C)c1ccc2c(C)cc(Oc3ccc(C(=N)N)cc3)nc2c1 = 6700
Cc1ccccc1-c1ccc2c(C)cc(Oc3ccc(C(=N)N)cc3)nc2c1 = 2900
CCOC(=O)C(C)(C)c1ccc2c(C)cc(Oc3ccc(C(=N)N)cc3)nc2c1 = 2400

For "Cc1ccccc1-c1ccc2c(C)cc(Nc3ccc(C(=N)N)cc3)nc2c1" , what is its reported IC50?
3500

What about "CCOC(=O)C1(c2ccc3c(C)cc(Oc4ccc(C(=N)N)cc4)nc3c2)CCCC1" ?
560

###

Measured log10(IC50) values are reported for all entries that follow.
target: Prothrombin (Homo sapiens, UniProt P00734); assay: In vitro inhibitory activity against thrombin in human plasma
Parameter value (number): base-10 log of IC50 in nM.

Some entries whose results are on file:
CCOC(=O)C(C)(C)c1ccc2c(C)cc(Oc3ccc(C(=N)N)cc3)nc2c1 = 0.78
CCOC(=O)C1(c2ccc3c(C)cc(Oc4ccc(C(=N)N)cc4)nc3c2)CCCC1 = 0.48
Cc1cc(Nc2ccc(C(=N)N)cc2)nc2cc(Br)ccc12 = 1.94
Cc1ccc(-c2ccc3c(C)cc(Oc4ccc(C(=N)N)cc4)nc3c2)cc1 = 1.26
Cc1ccccc1-c1ccc2c(C)cc(Oc3ccc(C(=N)N)cc3)nc2c1 = 0.78
CCOC(=O)C(CC)c1ccc2c(C)cc(Oc3ccc(C(=N)N)cc3)nc2c1 (centres undefined) = 1.00
C/C(=C\C(=O)O)c1ccc2c(C)cc(Oc3ccc(C(=N)N)cc3)nc2c1 = 2.78
CCOC(=O)Cc1ccc2c(C)cc(Oc3ccc(C(=N)N)cc3)nc2c1 = 1.96

// log10(IC50) lookup, key: "CCOC(=O)/C=C(\C)c1ccc2c(C)cc(Oc3ccc(C(=N)N)cc3)nc2c1"
1.20

Next compound up: "Cc1ccccc1-c1ccc2c(C)cc(Nc3ccc(C(=N)N)cc3)nc2c1"
1.57

Okay, and "Cc1cc(Sc2ccc(C(=N)N)cc2)nc2cc(Br)ccc12" ?
2.29

The origin of these recorded values is ChEMBL document CHEMBL1136099.
